Target: UniProt Q9NR97
Sequence (Q9NR97 27-1041): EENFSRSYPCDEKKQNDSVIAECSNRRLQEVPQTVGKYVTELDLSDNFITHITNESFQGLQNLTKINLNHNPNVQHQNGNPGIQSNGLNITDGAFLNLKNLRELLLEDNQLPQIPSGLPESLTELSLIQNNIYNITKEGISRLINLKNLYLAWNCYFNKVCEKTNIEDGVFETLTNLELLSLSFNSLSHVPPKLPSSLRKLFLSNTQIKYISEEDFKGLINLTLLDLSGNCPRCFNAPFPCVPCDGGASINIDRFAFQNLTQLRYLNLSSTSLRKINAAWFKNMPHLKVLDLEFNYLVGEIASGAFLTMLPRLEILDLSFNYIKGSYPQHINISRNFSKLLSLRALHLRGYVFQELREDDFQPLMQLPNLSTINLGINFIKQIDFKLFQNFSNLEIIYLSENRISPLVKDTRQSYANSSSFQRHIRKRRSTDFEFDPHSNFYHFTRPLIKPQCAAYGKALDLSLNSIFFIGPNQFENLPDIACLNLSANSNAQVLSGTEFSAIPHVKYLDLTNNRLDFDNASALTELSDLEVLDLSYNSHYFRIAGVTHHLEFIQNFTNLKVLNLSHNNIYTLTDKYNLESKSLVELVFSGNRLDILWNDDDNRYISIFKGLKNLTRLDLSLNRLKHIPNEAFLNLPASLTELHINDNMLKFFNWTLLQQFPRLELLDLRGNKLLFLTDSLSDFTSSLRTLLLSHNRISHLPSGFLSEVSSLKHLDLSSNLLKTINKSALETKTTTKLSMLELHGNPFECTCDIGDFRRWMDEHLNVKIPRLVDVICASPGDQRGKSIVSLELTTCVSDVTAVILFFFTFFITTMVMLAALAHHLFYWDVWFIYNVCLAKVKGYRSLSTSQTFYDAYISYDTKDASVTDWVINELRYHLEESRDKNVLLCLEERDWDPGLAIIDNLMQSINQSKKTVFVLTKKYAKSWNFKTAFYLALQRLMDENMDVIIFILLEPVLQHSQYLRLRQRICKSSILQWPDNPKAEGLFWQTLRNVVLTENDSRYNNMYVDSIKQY
Assay: HEK293-Blue-hTLR-8 cells assay
Details: HEK293-Blue-hTLR8 cells, R848 stimulation, 20 hrs, SEAP reporter; read-out: HEK/hTLR8 IC50
Endpoint Label: IC50 (nM)
Answers are plain numbers, in nM.

CC1(N)CCN(c2ccc3c(n2)CN2CCN(c4ccc(C#N)c5ncccc45)C[C@@H]32)CC1
1.9

// input: 4 molecules below; output: IC50 for each
1. C[C@@H]1CN(c2ccc(C#N)c3ncccc23)C[C@@H]2c3cnc(N4CCNCC4)cc3CN12
2. [2H]c1ccc2c(N3C[C@@H](C)N4Cc5nc(N6CCC7(CNC7)C6)ccc5[C@H]4C3)ccc(C#N)c2n1
3. [2H]c1ccc2c(N3C[C@@H](C)N4Cc5nc(N6C[C@@H]7C[C@H]6CN7)ccc5[C@H]4C3)ccc(C#N)c2n1
4. [2H]c1ccc2c(N3C[C@@H](C)N4Cc5nc(C6CCNCC6)ccc5[C@H]4C3)ccc(C#N)c2n1

// result
1: 0.4; 2: 0.7; 3: 0.4; 4: 0.3

// input: 2 molecules below; output: IC50 for each
1. C[C@@H]1CN(c2ccc(C#N)c3ncccc23)C[C@@H]2c3ccc(N4CC5CNCC(C4)O5)nc3CN12
2. N#Cc1ccc(N2CCN3Cc4nc(N5CCNCC5)ccc4[C@@H]3C2)c2cccnc12

// result
2.3
0.5
